- test protocol: Mouse pharmacokinetic study (intravenous and oral)
- Assay type: in vivo
- setup conditions: male, plasma, ICR mice, intravenous, 1 mg/kg, solution
attribute measured: Vd
# output: numeric value plus its unit

[in] Entry "Cc1cnc(Nc2cnn(C3CC(C)(C)OC(C)(C)C3)c2)nc1-c1ccc(C(=O)NCC#N)cc1" has what Vd?
[out] 0.67 L/kg

---

- test protocol: Rat pharmacokinetic study (intravenous and oral)
- Assay type: in vivo
- setup conditions: male, plasma, Sprague-Dawley rats, intravenous, 1 mg/kg, solution
attribute measured: AUC (ng·h/mL)
Please respond with the number in ng·h/mL and leave the unit unwritten.

Would you please look over these solved cases?
| structure notation | result units | readout value |
| --- | --- | --- |
| Cc1cnc(Nc2cnn(C3CCOCC3)c2)nc1-c1ccc(C(=O)NCC#N)cc1 | ng·h/mL | 1060 |
| Cc1cnc(Nc2cnn(C)c2)nc1-c1ccc(C(=O)NCC2(C#N)CC2)cc1 | ng·h/mL | 624 |
| Cc1cnc(Nc2cnn(C3CCN(C(=O)C4CC4)CC3)c2)nc1-c1ccc(C(=O)NCC#N)cc1 | ng·h/mL | 1970 |

[in] Entry "Cc1cnc(Nc2cnn(C3CCN(C(=O)C4(C)CC4)CC3)c2)nc1-c1ccc(C(=O)NCC#N)cc1" has what AUC?
[out] 2880

[in] Proceed to "Cc1cnc(Nc2cnn(C3CC3)c2)nc1-c1ccc(C(=O)NCC#N)cc1"
[out] 607

[in] Proceed to "Cc1cnc(Nc2cnn(CC(F)(F)F)c2)nc1-c1ccc(C(=O)NCC#N)cc1"
[out] 732

[in] Proceed to "Cc1cnc(Nc2cnn(C)c2)nc1-c1ccc(C(=O)NCC(C)(C)C#N)cc1"
[out] 880

[in] Proceed to "Cc1cnc(Nc2cnn(C)c2)nc1-c1ccc(C(=O)N[C@@H](C)C#N)cc1"
[out] 504

[in] Proceed to "C[C@@H](C#N)NC(=O)c1ccc(-c2nc(Nc3cnn(C4CCOCC4)c3)ncc2Cl)cc1"
[out] 951

[in] Proceed to "Cc1cnc(Nc2cnn(CC#N)c2)nc1-c1ccc(C(=O)NCC#N)cc1"
[out] 855
